src = ChEMBL document CHEMBL5500361

pKi: −log10 of the molar value.
This section lists pKi readings for Carbonic anhydrase 2 (Homo sapiens, UniProt P00918).

Substance smiles | pKi
NS(=O)(=O)c1ccc(/N=C2\NC(=O)/C(=C\c3ccc(Cl)cc3)S2)cc1 | 7.02
CCN1C(=O)/C(=C\c2ccccc2)S/C1=N/c1ccc(S(N)(=O)=O)cc1 | 7.11
COc1ccc(/C=C2/S/C(=N/c3ccc(S(N)(=O)=O)cc3)N(C)C2=O)cc1 | 7.26

---

biological target: Carbonic anhydrase 12 (Homo sapiens, UniProt O43570)
Sequence (O43570 whole entry): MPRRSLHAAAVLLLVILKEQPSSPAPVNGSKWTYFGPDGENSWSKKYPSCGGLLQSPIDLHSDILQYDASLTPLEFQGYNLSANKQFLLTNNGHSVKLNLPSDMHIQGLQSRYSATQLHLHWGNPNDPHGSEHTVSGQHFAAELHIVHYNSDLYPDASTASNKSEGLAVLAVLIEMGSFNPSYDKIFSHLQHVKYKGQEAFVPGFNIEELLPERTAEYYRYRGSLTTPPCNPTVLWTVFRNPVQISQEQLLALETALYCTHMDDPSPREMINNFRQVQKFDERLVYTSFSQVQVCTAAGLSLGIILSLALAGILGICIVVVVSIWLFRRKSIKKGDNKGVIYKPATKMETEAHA
In this section we review reported log10 Ki values for a set of molecules.
Property name: log10 Ki (log10 of the value in nM)

Substance smiles | Obs value
CCN1C(=O)/C(=C\c2ccc(OC)cc2)S/C1=N/c1ccc(S(N)(=O)=O)cc1 | 1.75
CCN1C(=O)/C(=C2\C(=O)Nc3ccccc32)S/C1=N/c1ccc(S(N)(=O)=O)cc1 | 0.96
NS(=O)(=O)c1ccc(/N=C2\NC(=O)/C(=C\c3ccccc3)S2)cc1 | 2.08
CN1C(=O)/C(=C\c2ccccc2)S/C1=N/c1ccc(S(N)(=O)=O)cc1 | 1.87
CN1C(=O)/C(=C\c2ccc(F)cc2)S/C1=N/c1ccc(S(N)(=O)=O)cc1 | 1.57
COc1ccc(/C=C2/S/C(=N/c3ccc(S(N)(=O)=O)cc3)N(C)C2=O)cc1 | 1.82
CCN1C(=O)/C(=C\c2ccccc2)S/C1=N/c1ccc(S(N)(=O)=O)cc1 | 1.98
CCN1C(=O)/C(=C\c2ccc(F)cc2)S/C1=N/c1ccc(S(N)(=O)=O)cc1 | 1.04
